protocolText: NCI Yeast Anticancer Drug Screen. Data for the rad18 strain (AID 177)
reportedConditions: S. cerevisiae rad18 mutant growth inhibition; at 33.0 µM; stronger effect = higher value
About 79,000 compounds went through this panel and 15% of them were active in at least one assay; those are over-represented in the sample as a whole.

{"compound": "O=C(Oc1ccc([N+](=O)[O-])cc1)c1ccc([N+](=O)[O-])cc1", "unitsOfMeasure": "%", "growth inhibition": 22}
{"compound": "Nc1cccc(-c2cc[cH-]c2)c1.[Fe+2].c1cc[cH-]c1", "unitsOfMeasure": "%", "growth inhibition": 50}
{"compound": "Cc1c(Cl)c(C)c(Cl)c(O)c1Cl", "unitsOfMeasure": "%", "growth inhibition": 65}
{"compound": "O=c1[nH]c2c([N+](=O)[O-])cccc2c2ccccc12", "unitsOfMeasure": "%", "growth inhibition": 73}
{"compound": "O=C(C(Cl)=C(N1CCCCC1)N1CCCCC1)C(Cl)Cl", "unitsOfMeasure": "%", "growth inhibition": -15}
{"compound": "CSc1nc(-c2ccccc2)nc(=[N+]2CCOCC2)s1", "unitsOfMeasure": "%", "growth inhibition": 94}
{"compound": "O=[N+]([O-])c1ccc(S(=O)(=O)Cc2ccccc2)c([N+](=O)[O-])c1", "unitsOfMeasure": "%", "growth inhibition": 96}
{"compound": "S=C(NCc1ccccn1)N/N=C/c1ccccn1", "unitsOfMeasure": "%", "growth inhibition": 98}
{"compound": "C/C1=C/C2OC(=O)C3(C)C2C(CC2(C)OC1=CC2=O)OC3(O)C(C)C (stereo unspecified)", "unitsOfMeasure": "%", "growth inhibition": -44}
{"compound": "CCN(CC)CCNc1ccc2nc(C)n3c4ccc(OC)cc4c(=O)c1c23", "unitsOfMeasure": "%", "growth inhibition": 66}
{"compound": "COc1ccc2nc3cccc([N+](=O)[O-])c3c(NCCNCCO)c2c1", "unitsOfMeasure": "%", "growth inhibition": 95}
